System: basal ERK1/2 phosphorylation in Malme-3M cells
Test: Cellular ERK 1/2 phosphorylation assay
Format: cell-based
Conditions: Homo sapiens, 1 hour incubation, pERK normalized to total ERK, representative data of multiple tests
Known log10 of IC50 of a selection of compounds
# values: log10(IC50), units µM

Use these answered entries as a reference point.
COc1cc2ncc(NC(=O)c3c(Cl)ccc(NS(=O)(=O)CCCF)c3F)cn2n1 [Example 22]: -1.37
CCCS(=O)(=O)Nc1ccc(F)c(C(=O)Nc2cnc3cc(OCCOC)nn3c2)c1Cl [Example 34]: -0.90
CCCS(=O)(=O)Nc1ccc(F)c(C(=O)Nc2cnc3cc(OC)nn3c2)c1F [Example 1]: -1.16
CCCS(=O)(=O)Nc1ccc(F)c(C(=O)Nc2cnc3cc(-c4cccnc4)nn3c2)c1F [Example 10]: -1.57
CCCS(=O)(=O)Nc1ccc(F)c(C(=O)Nc2cnc3cc(N4CCCC4)nn3c2)c1F [Example 17]: -0.18

QUERY: # log10 of IC50 lookup, item COc1cc2ncc(NC(=O)c3c(F)ccc(NS(=O)(=O)N4CCCC4)c3F)cn2n1 [Example 24]
RESULT: -0.42

QUERY: Can you share its log10 of IC50? I mean this compound: CCCS(=O)(=O)Nc1ccc(F)c(C(=O)Nc2cnc3cc(-c4cccc(N5CCN(C)CC5)c4)nn3c2)c1F [Example 11]
RESULT: -2.02

QUERY: Which log10 of IC50 value belongs to CCCS(=O)(=O)Nc1ccc(F)c(C(=O)Nc2cnc3cc(-c4ccccc4)nn3c2)c1F [Example 5] ?
RESULT: -1.86

----------
Target: V600E full-length B-Raf (Homo sapiens, UniProt P15056, V600E)
Construct: made in house; host or cells: Sf9 insect cells (baculovirus)
Sequence (P15056 whole entry V600E): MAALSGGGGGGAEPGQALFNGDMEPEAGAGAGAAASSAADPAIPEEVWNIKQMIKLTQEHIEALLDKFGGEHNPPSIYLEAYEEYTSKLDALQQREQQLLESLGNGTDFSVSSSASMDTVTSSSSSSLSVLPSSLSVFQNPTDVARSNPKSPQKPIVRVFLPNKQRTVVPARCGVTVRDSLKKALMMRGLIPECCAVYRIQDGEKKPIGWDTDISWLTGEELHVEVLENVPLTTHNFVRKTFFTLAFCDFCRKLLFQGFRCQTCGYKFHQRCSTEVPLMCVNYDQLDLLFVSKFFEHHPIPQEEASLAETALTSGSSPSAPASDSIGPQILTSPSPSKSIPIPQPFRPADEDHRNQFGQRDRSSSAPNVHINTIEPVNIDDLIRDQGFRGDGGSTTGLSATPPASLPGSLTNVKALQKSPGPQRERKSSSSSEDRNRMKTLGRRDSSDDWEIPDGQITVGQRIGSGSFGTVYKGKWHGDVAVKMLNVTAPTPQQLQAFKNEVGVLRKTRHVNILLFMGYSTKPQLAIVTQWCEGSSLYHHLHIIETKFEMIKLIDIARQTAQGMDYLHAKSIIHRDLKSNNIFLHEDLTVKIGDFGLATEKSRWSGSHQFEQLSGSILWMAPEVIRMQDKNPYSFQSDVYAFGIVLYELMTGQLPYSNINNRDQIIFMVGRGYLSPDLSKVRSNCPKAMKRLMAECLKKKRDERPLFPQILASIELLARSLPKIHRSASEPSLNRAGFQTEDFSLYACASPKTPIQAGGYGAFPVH
Experiment: B-Raf IC50 assay (incorporation of radiolabeled phosphate from [γ-33P]ATP into FSBA-modified wild-type MEK)
Type: biochemical
Conditions: 4 μM ATP, 60-minute incubation, representative data of multiple tests
pIC50: −log10 of the molar value.
Please use 1.0 whenever pIC50 is not below 7, and 0.0 whenever it is.

Past entries and their recorded results:
CCCS(=O)(=O)Nc1ccc(F)c(C(=O)Nc2cnc3cc(OCCOC)nn3c2)c1Cl: 1.0
COc1cc2ncc(NC(=O)c3c(Cl)ccc(NS(=O)(=O)CCCF)c3F)cn2n1: 1.0
CCCS(=O)(=O)Nc1ccc(F)c(C(=O)Nc2cnc3cc(-c4cccnc4)nn3c2)c1F: 1.0
CCCS(=O)(=O)Nc1ccc(F)c(C(=O)Nc2cnc3cc(N4CCCC4)nn3c2)c1F: 0.0
CCCS(=O)(=O)Nc1ccc(F)c(C(=O)Nc2cnc3cc(-c4cccc(N5CCN(C)CC5)c4)nn3c2)c1F: 1.0
COc1cc2ncc(NC(=O)c3c(F)ccc(NS(=O)(=O)N4CCCC4)c3F)cn2n1: 0.0

In the following, a different compound is considered.
QUERY: Item `CCCS(=O)(=O)Nc1ccc(F)c(C(=O)Nc2cnc3cc(OC)nn3c2)c1F` with pIC50 of 7 or above?
RESULT: 1.0

----------
Reported pIC50 values for a set of molecules
Biological target: V600E full-length B-Raf (Homo sapiens, UniProt P15056, V600E)
Construct: made in house; host or cells: Sf9 insect cells (baculovirus)
Assay: B-Raf IC50 assay (incorporation of radiolabeled phosphate from [γ-33P]ATP into FSBA-modified wild-type MEK)
Format: biochemical
Conditions: bound stated
Description: Determining the activity of Raf in the sample is possible by a number of direct and indirect detection methods (US 2004/0082014). Activity of human recombinant B-Raf protein may be assessed in vitro by assay of the incorporation of radio labeled phosphate to recombinant MAP kinase (MEK), a known physiologic substrate of B-Raf, according to US 2004/0127496 and WO 03/022840. […]
pIC50: −log10 of the molar value.

Below: 4 molecules and their reported pIC50.
CCCS(=O)(=O)Nc1ccc(F)c(C(=O)Nc2cnc3cc(OCCOC)nn3c2)c1Cl: > 6.82
COc1cc2ncc(NC(=O)c3c(F)ccc(NS(=O)(=O)CCCF)c3F)cn2n1: > 6.82
CCCS(=O)(=O)Nc1ccc(F)c(C(=O)Nc2cnc3cc(CC)nn3c2)c1F: > 6.82
COc1cc2ncc(NC(=O)c3c(F)ccc(NS(=O)(=O)N4CCCC4)c3F)cn2n1: > 6.52

QUERY: Which pIC50 value is on record for `CCCS(=O)(=O)Nc1ccc(Cl)c(C(=O)Nc2cnc3cc(OC)nn3c2)c1F` ?
RESULT: > 6.82

QUERY: For `COc1cc2ncc(NC(=O)c3c(F)ccc(NS(=O)(=O)CC(C)C)c3F)cn2n1` , what is its reported pIC50?
RESULT: > 6.82

QUERY: # input molecule: `CCCS(=O)(=O)Nc1ccc(F)c(C(=O)Nc2cnc3cc(SC)nn3c2)c1F` ; wanted: its pIC50
RESULT: > 6.82

QUERY: Look up pIC50 for this molecule: `CCCS(=O)(=O)Nc1ccc(F)c(C(=O)Nc2cnc3cc(C4CC4)nn3c2)c1F`
RESULT: > 6.82

QUERY: Bench note: what pIC50 did CCCS(=O)(=O)Nc1ccc(F)c(C(=O)Nc2cnc3cc(C4CCOC4)nn3c2)c1F (stereo not shown) show?
RESULT: > 6.52

QUERY: Look up pIC50: `COc1cc2ncc(NC(=O)c3c(Cl)ccc(NS(=O)(=O)CCCF)c3F)cn2n1`
RESULT: > 6.82

QUERY: // pIC50 lookup, key: `CCCS(=O)(=O)Nc1ccc(F)c(C(=O)Nc2cnc3cc(-c4ccc(Cl)cc4)nn3c2)c1F`
RESULT: > 6.82

QUERY: pIC50 lookup needed for `CCCS(=O)(=O)Nc1ccc(F)c(C(=O)Nc2cnc3cc(-c4ccc(F)cc4)nn3c2)c1F` , thanks.
RESULT: > 6.82

QUERY: Value lookup for pIC50; key = `CCCS(=O)(=O)Nc1ccc(F)c(C(=O)Nc2cnc3cc(-c4cccc(F)c4)nn3c2)c1F`
RESULT: > 6.82

These data points were gathered from patent US20120157451A1.
